Molecular target: Estrogen receptor (Homo sapiens)
Sequence (P03372 whole entry): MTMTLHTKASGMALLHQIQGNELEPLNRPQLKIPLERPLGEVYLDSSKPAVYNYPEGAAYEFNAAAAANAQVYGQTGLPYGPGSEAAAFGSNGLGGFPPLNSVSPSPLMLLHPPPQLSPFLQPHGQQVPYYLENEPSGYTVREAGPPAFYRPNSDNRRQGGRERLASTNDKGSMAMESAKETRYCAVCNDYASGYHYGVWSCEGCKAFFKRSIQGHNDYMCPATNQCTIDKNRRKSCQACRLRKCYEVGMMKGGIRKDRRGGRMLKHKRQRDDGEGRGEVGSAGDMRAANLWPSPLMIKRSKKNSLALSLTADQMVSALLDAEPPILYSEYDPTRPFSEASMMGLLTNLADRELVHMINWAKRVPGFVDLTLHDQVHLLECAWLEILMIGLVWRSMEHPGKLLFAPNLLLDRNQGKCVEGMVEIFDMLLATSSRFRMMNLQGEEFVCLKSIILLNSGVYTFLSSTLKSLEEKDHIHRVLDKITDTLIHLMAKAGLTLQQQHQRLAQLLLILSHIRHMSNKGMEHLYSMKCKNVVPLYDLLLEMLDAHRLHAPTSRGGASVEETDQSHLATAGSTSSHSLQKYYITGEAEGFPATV
Test: Agonist activity at human ERalpha expressed in african green monkey CV1 cells by luciferase reporter gene assay relative to 17beta estradiol
pEC50: −log10 of the molar value.
measure: pEC50

>>> df
                                  structure  value_measured
0  COc1cc([C@H]2O[C@@H](c3cc(OC)c4c(c3)OCO4)[C@@H](CO)[C@@H]2COC(C)=O)cc2c1OCO2            5.51
